# Lookup of reported Ki keyed by entry
# Target system: Gastrin/cholecystokinin type B receptor (Homo sapiens, UniProt P32239)
# Sequence (P32239 whole entry): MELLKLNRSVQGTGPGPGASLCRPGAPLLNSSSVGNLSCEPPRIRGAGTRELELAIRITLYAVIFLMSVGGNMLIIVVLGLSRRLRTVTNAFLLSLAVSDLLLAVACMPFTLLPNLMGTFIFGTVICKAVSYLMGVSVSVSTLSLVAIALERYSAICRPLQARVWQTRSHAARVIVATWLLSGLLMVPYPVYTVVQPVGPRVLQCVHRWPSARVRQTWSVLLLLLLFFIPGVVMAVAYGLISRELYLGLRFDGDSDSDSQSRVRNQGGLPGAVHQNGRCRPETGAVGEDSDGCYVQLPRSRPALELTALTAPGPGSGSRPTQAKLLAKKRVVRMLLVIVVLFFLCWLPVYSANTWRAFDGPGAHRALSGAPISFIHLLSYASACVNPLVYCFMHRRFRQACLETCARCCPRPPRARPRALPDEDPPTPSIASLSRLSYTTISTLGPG
# Measurement description: Displacement of [125I]BH-CCK-8S from human recombinant CCK2 receptor expressed in NIH3T3 cells
Record the value in nM, omitting the unit from your answer.

Smiles str: CC(C)(C)C(=O)CN1C(=O)N(CC(=O)Nc2ccc3c(cnn3CC(=O)O)c2)N=C(C2CCCCC2)c2ccccc21
Unit of measure: nM
Ki: 9.33
//
Smiles str: CC(C)(C)C(=O)CN1C(=O)N(CC(=O)Nc2cccc(SCC(=O)O)c2)N=C(C2CCCCC2)c2ccccc21
Unit of measure: nM
Ki: 0.646
//
Smiles str: CC(C)(C)C(=O)CN1C(=O)N(CC(=O)Nc2cccc(S(=O)(=O)CC(=O)O)c2)N=C(C2CCCCC2)c2ccccc21
Unit of measure: nM
Ki: 4.27

Ask: # value lookup — system Gastrin/cholecystokinin type B receptor (Homo sapiens, UniProt P32239), readout Ki, item CC(C)(C)C(=O)CN1C(=O)N(CC(=O)Nc2cccc(SCc3nn[nH]n3)c2)N=C(C2CCCCC2)c2ccccc21
Reply: 0.708

Values compiled from ChEMBL document CHEMBL1145380.
